Attribution: patent US7582447B2

Target: CT2 (Homo sapiens)
Construct: a cRNA (RNA complementary to cDNA) was prepared in vitro from a plasmid containing the CT2cDNA
Sequence (Q86VW1 1-543 isoform Q86VW1-2): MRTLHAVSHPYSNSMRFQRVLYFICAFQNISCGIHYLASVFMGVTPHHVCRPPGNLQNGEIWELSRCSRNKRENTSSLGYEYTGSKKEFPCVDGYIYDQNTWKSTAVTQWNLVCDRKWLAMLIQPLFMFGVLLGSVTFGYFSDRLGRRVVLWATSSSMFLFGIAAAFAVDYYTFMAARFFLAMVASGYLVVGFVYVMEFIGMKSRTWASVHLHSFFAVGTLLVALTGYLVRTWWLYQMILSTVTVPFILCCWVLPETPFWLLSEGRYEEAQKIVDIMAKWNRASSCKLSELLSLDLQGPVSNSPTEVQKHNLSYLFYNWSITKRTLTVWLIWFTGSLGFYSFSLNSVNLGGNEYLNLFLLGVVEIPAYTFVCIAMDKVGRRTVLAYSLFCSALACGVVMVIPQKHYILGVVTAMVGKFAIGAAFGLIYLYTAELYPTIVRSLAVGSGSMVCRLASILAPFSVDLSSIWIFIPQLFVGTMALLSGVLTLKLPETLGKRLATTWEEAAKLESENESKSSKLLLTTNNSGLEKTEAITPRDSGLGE
Assay: inhibition experiment: ^3H-carnitine uptake by oocytes injected with CT2 cRNA in the presence of unlabelled compounds
Conditions: oocytes injected with CT2 cRNA; FIG. 2B; read-out: Ki value, inhibition of the L-carnitine transport by CT2
pKi: −log10 of the molar value.
endpoint_label: pKi

Q) Data request, read-out pKi, for C[N+](C)(C)C[C@@H](O)CC(=O)[O-] [D-carnitine]
A) ~4.52
